# Tgt: IDO (IFNγ-treated Hela cells) (Homo sapiens, UniProt P14902)
# Construct: endogenous in cells
# Sequence (P14902 whole entry): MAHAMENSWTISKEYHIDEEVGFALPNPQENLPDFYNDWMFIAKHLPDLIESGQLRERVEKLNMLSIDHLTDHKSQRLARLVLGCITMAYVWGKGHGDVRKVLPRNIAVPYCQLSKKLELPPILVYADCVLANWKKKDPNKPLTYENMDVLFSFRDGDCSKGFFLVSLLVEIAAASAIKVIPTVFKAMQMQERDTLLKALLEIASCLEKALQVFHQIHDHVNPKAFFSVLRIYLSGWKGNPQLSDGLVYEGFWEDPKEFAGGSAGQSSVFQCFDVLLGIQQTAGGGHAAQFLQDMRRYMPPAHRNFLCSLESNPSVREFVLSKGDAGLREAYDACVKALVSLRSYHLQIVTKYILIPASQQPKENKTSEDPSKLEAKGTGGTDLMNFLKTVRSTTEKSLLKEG
# Assay text: IDO Kynurenine Assay with Hela Cells
# Recorded conditions: IFNγ 10 ng/ml, 20 hours incubation, kynurenine absorbance at 490 nm, read-out: Hela Cells LLE_IDO_ABS_DR (IC50)
Parameter: IC50 (nM)
Only the number, expressed in nM, is required.

{"Compound": "CC(C)CN(Cc1ccccc1)c1ccc(-c2ccccc2-c2nnn[nH]2)cc1NC(=O)[C@H](O)c1ccccc1 [Example 48]", "IC50 [nM]": 1610}
{"Compound": "O=C(Nc1cc(-c2ccccc2-c2nnn[nH]2)ccc1N1CC2CC1CN2Cc1ccccc1)[C@H](O)c1ccccc1 (stereo partly shown) [Example 83]", "IC50 [nM]": 8920}

Okay, next one:
According to the records, this compound CC(C)CN(CC(C)C)c1ccc(-c2ccccc2-c2nnn[nH]2)cc1NC(=O)Cc1ccc(C(F)(F)F)cc1 [Example 29] displays IC50 of 60

---

# Tgt: IDO (IFNγ-treated Hela cells) (Homo sapiens)
# Construct: endogenous in cells
# Assay text: IDO Kynurenine Assay with Hela Cells
# Recorded conditions: IFNγ 10 ng/ml, 20 hours incubation, kynurenine absorbance at 490 nm, read-out: Hela Cells LLE_IDO_ABS_DR (IC50)
Measured pIC50, listed per entry for reference.
Formally, pIC50 is defined as -log10 of the concentration c, with c in mol/L.

Some molecules with recorded pIC50:
{"Cpd smiles": "COc1ccc(OC(=O)Nc2cc(-c3ccccc3-c3nnn[nH]3)ccc2N(CC(C)C)CC(C)C)cc1", "Tgt": "IDO (IFNγ-treated Hela cells) (Homo sapiens)", "pIC50": 6.92}
{"Cpd smiles": "O=C(Cc1ccccc1C(F)(F)F)Nc1cc(-c2ccccc2-c2nnn[nH]2)ccc1-n1cccn1", "Tgt": "IDO (IFNγ-treated Hela cells) (Homo sapiens)", "pIC50": 6.55}
{"Cpd smiles": "CC(C)CN(CC(C)C)c1ccc(-c2ccccc2-c2nnn[nH]2)cc1NC(=O)CN1CCOCC1", "Tgt": "IDO (IFNγ-treated Hela cells) (Homo sapiens)", "pIC50": 5.60}
{"Cpd smiles": "CC(C)CN(CC(C)C)c1ccc(-c2ccccc2-c2nnn[nH]2)cc1NC(=O)Cc1cncc(Br)c1", "Tgt": "IDO (IFNγ-treated Hela cells) (Homo sapiens)", "pIC50": 7.10}
{"Cpd smiles": "CC(C)CN(CC(C)C)c1ccc(-c2ccccc2-c2nnn[nH]2)cc1NC(=O)CS(=O)(=O)c1ccccc1", "Tgt": "IDO (IFNγ-treated Hela cells) (Homo sapiens)", "pIC50": 5.40}

According to the records, this molecule `Cc1ccc(CC(=O)Nc2cc(-c3ccccc3-c3nnn[nH]3)ccc2N2C[C@H](C)C[C@H](C)C2)cc1` displays pIC50 of 6.28

According to the records, this molecule `CC(C)CN(c1ccc(-c2ccccc2C(=O)O)cc1NC(=O)Cc1ccccc1F)C1CCCCC1` displays pIC50 of 7.40

---

# Tgt: Human IDO1 (Homo sapiens)
# Construct: expressed in transfected cells; host or cells: HEK293
# Assay text: IDO Kynurenine Assay with Human IDO1/HEK293 Cells
# Type: cell-based
# Recorded conditions: 20 hours incubation, kynurenine absorbance at 490 nm, read-out: HEK human IDO-1 (IC50)
Parameter: IC50 (nM)
Only the number, expressed in nM, is required.

Some compounds with recorded IC50:
{"Cpd smiles": "CC(C)CN(CCOC(C)C)c1ccc(-c2ccccc2-c2nnn[nH]2)cc1NC(=O)Cc1ccc(C#N)cc1", "Units text": "nM", "Value observed": 170}
{"Cpd smiles": "N#Cc1ccc(CC(=O)Nc2cc(-c3ccccc3C(=O)O)ccc2N(CCCC(F)(F)F)C2CCCCC2)cc1", "Units text": "nM", "Value observed": 2110}
{"Cpd smiles": "CC(C)CN(CC(C)C)c1ccc(-c2ccccc2-c2nnn[nH]2)cc1NC(=O)Cc1cccs1", "Units text": "nM", "Value observed": 20}

According to the records, this compound `Cc1ccc(CC(=O)Nc2cc(-c3ccccc3C(=O)O)cc(F)c2N(CC(C)C)C2CCCCC2)cc1` displays IC50 of 80

---

Measured log10 IC50, listed per entry for reference.
# Tgt: Human IDO1 (Homo sapiens)
# Assay text: IDO Kynurenine Assay with Human IDO1/HEK293 Cells
# Recorded conditions: 20 hours incubation, kynurenine absorbance at 490 nm, read-out: HEK human IDO-1 (IC50)
Values reflect log10 of reported IC50 (nM).

Some molecules with recorded log10 IC50:
{"Molecule": "CC(C)CN(CC(C)C)c1ccc(-c2ccccc2-c2nnn[nH]2)cc1NC(=O)Cc1ccncc1 [Example 57]", "Value observed": 2.56}
{"Molecule": "CCC(CC)N(CC(C)C)c1ccc(-c2cc(F)ccc2C(=O)O)cc1NC(=O)Cc1ccc(C)cc1 [Example 61]", "Value observed": 1.30}
{"Molecule": "Cc1ccc(CC(=O)Nc2cc(-c3ccccc3-c3nnn[nH]3)ccc2N(Cc2ccccc2)CC(C)C)cc1 [Example 74]", "Value observed": 1.00}
{"Molecule": "CC(C)CN(CC(C)C)c1ccc(-c2ccccc2-c2nnn[nH]2)cc1NC(=O)Cc1cc(Br)cs1 [Example 64]", "Value observed": 1.60}
{"Molecule": "CC(C)CN(c1cc(F)c(-c2ccccc2C(=O)O)cc1NC(=O)Cc1ccc(C#N)cc1)C1CCCCC1 [Example 84]", "Value observed": 1.48}
{"Molecule": "O=C(Cc1ccccc1C(F)(F)F)Nc1cc(-c2ccccc2-c2nnn[nH]2)ccc1N1CC2CC1CN2Cc1ccccc1 (stereo not shown) [Example 81]", "Value observed": 2.04}

Okay, next one:
According to the records, this molecule CC(C)CN(CC(C)C)c1ccc(-c2ccccc2-c2nnn[nH]2)cc1NC(=O)Cc1ccc(F)cc1 [Example 12] displays log10 IC50 of 0.48

---

# Tgt: IDO (IFNγ-treated Hela cells) (Homo sapiens)
# Construct: endogenous in cells; host or cells: Hela cells treated with IFNγ (10 ng/ml)
# Assay text: IDO Kynurenine Assay with Hela Cells
# Type: cell-based
# Recorded conditions: IFNγ 10 ng/ml, 20 hours incubation, kynurenine absorbance at 490 nm, read-out: Hela Cells LLE_IDO_ABS_DR (IC50)
Measured pIC50, listed per entry for reference.
Formally, pIC50 is defined as -log10 of the concentration c, with c in mol/L.

{"Molecule": "CC(C)(C)CC(=O)Nc1cc(-c2ccccc2-c2nnn[nH]2)ccc1-n1cccn1", "Tgt": "IDO (IFNγ-treated Hela cells) (Homo sapiens)", "pIC50": 5.35}
{"Molecule": "CC(C)CN(CC(C)C)c1ccc(-c2ccccc2-c2nnn[nH]2)cc1NC(=O)CC1CC1", "Tgt": "IDO (IFNγ-treated Hela cells) (Homo sapiens)", "pIC50": 6.30}
{"Molecule": "Cc1ccc(CC(=O)Nc2cc(-c3ccccc3-c3nnn[nH]3)ccc2N(CC(C)C)CC(C)C)c(F)c1", "Tgt": "IDO (IFNγ-treated Hela cells) (Homo sapiens)", "pIC50": 8.04}
{"Molecule": "CC(C)CN(c1ccc(-c2ccccc2C(=O)O)cc1NC(=O)Cc1ccccc1C(F)(F)F)C1CCCCC1", "Tgt": "IDO (IFNγ-treated Hela cells) (Homo sapiens)", "pIC50": 6.03}
{"Molecule": "O=C(Cc1ccccc1C(F)(F)F)Nc1cc(-c2ccccc2-c2nnn[nH]2)ccc1N1CC2CC1CN2Cc1ccccc1 (centres unmarked)", "Tgt": "IDO (IFNγ-treated Hela cells) (Homo sapiens)", "pIC50": 7.00}
{"Molecule": "CC(C)CN(CC(C)C)c1ccc(-c2ccccc2-c2nnn[nH]2)cc1NC(=O)COc1cccnc1", "Tgt": "IDO (IFNγ-treated Hela cells) (Homo sapiens)", "pIC50": 6.30}
{"Molecule": "CC(C)CN(c1ccc(-c2ccccc2-c2nnn[nH]2)cc1NC(=O)Cc1ccccc1C(F)(F)F)C1CCCCC1", "Tgt": "IDO (IFNγ-treated Hela cells) (Homo sapiens)", "pIC50": 6.89}
{"Molecule": "CC(C)CN(CC(C)C)c1ccc(-c2ccccc2-c2nnn[nH]2)cc1NC(=O)Cc1cccc(F)c1", "Tgt": "IDO (IFNγ-treated Hela cells) (Homo sapiens)", "pIC50": 8.05}

According to the records, this molecule `CC(C)CN(CC(C)C)c1ccc(-c2ccccc2-c2nnn[nH]2)cc1NC(=O)Cc1cccc2ccccc12` displays pIC50 of 7.10

According to the records, this molecule `CC(C)CN(c1ccc(-c2ccccc2-c2nnn[nH]2)cc1NC(=O)Cc1ccccc1F)C1CCCCC1` displays pIC50 of 7.70

According to the records, this molecule `CC(C)CN(Cc1ccccc1)c1ccc(-c2ccccc2-c2nnn[nH]2)cc1NC(=O)CC(C)(C)C` displays pIC50 of 6.33

---

Measured IC50, listed per entry for reference.
# Tgt: IDO (IFNγ-treated Hela cells) (Homo sapiens, UniProt P14902)
# Construct: endogenous in cells
# Assay text: IDO Kynurenine Assay with Hela Cells
# Recorded conditions: IFNγ 10 ng/ml, 20 hours incubation, kynurenine absorbance at 490 nm, read-out: Hela Cells LLE_IDO_ABS_DR (IC50)
Only the number, expressed in nM, is required.

Some molecules with recorded IC50:
{"Molecule": "CC(C)CN(CC(C)C)c1ccc(-c2ccccc2-c2nnn[nH]2)cc1NC(=O)Cc1ccc(OC(F)(F)F)cc1 [Example 15]", "IC50 [nM]": 90}
{"Molecule": "CC(C)CN(CC(C)C)c1ccc(-c2ccccc2-c2nnn[nH]2)cc1NC(=O)Cc1ccc(Cl)cc1 [Example 17]", "IC50 [nM]": 4.42}

According to the records, this molecule CC(C)CN(CC(C)C)c1ccc(-c2ccccc2-c2nnn[nH]2)cc1NC(=O)Cc1cccc(C(F)(F)F)c1 [Example 27] displays IC50 of 160

According to the records, this molecule CC(C)CN(CC(C)C)c1ccc(-c2ccccc2-c2nnn[nH]2)cc1NC(=O)Oc1ccc(Cl)cc1 [Example 45] displays IC50 of 3900

According to the records, this molecule Cc1ccc(CC(=O)Nc2cc(-c3cc(F)ccc3C(=O)O)ccc2N(CC(C)C)CC(C)C)cc1 [Example 1] displays IC50 of 10

According to the records, this molecule CC(C)CN(CC(C)C)c1ccc(-c2ccccc2-c2nnn[nH]2)cc1NC(=O)Cc1ccc(Oc2ccccc2)cc1 [Example 34] displays IC50 of 250

According to the records, this molecule CC(C)CN(c1ccc(-c2cc(F)ccc2C(=O)O)cc1NC(=O)Cc1ccccc1F)C1CCCCC1 [Example 6] displays IC50 of 50
